tested.on: T1, ARHGAP21, Q5T5U3
T1 sequence (Q5T5U3 45-169, limits assumed, looked up): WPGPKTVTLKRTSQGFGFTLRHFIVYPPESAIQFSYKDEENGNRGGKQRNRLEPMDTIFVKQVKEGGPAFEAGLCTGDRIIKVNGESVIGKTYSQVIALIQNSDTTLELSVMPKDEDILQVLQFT
protocol: holdup assay
Set-up: key: below the threshold = too weak to quantify, mostly under pKd 3.1 to 4
experimental.context: plain residues with an end cap or a label only (N-terminal biotin on a linker: ado-ado)
pKd values, listed per item
Answer with a bare number; do not write a unit.

Answered examples (4):
binder	pKd
DSEEELPTRL [GRK6, P43250]	4.22
IQISELETNV [SLC1A7, O00341]	3.98
FLVTEFNVML [DFNB31, Q9P202]	4.61
THHRKIHTRV [ZNF599, Q96NL3]	4.01

Q) Value lookup for pKd; key = LVEEEEPMNL [HDAC7, Q8WUI4]
A) 3.77

Q) Next binder up: DYSNLRETDI [ADRA1D, P25100]
A) 3.98
